# Study system: T1, MAGE-A1 peptide on HLA-A*02:01 (human)
# T1 peptide: KVLEYVIKV
# Assay explanation: JKR9 reporter + peptide-loaded T2, 16 h; full-length, on cells
We begin with a simple list: items and their reported EC50 of peptide.

{"Binder": "A1A2-M01-621 (TCR, V domains shown) Valpha: GEDVEQSLFLSVREGDSSVINCTYTDSEFTYLYWYKQEPGAGLQLLTYIFAFESMKQDQRLTVLLNKKDKHLSLRIADTQTGDSAIYFCAGSGGGTDKLIFGTGTRLQVFP Vbeta: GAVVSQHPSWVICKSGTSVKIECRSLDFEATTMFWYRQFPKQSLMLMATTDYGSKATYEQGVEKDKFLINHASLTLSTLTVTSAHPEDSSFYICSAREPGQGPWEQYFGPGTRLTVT", "Output unit": "nM", "EC50 of peptide": 35.7}
{"Binder": "A1A2-M01-620 (TCR, V domains shown) Valpha: GEDVEQSLFLSVREGDSSVINCTYTDSSQTYLYWYKQEPGAGLQLLTYIFSNMDMKQDQRLTVLLNKKDKHLSLRIADTQTGDSAIYFCAGSGGGTDKLIFGTGTRLQVFP Vbeta: GAVVSQHPSWVICKSGTSVKIECRSLDFEATTMFWYRQFPKQSLMLMATTDYGSKATYEQGVEKDKFLINHASLTLSTLTVTSAHPEDSSFYICSAREPGQAWSDQYFGPGTRLTVT", "Output unit": "nM", "EC50 of peptide": 25}
{"Binder": "A1A2-M01-613 (TCR, V domains shown) Valpha: GEDVEQSLFLSVREGDSSVINCTYTDSSLTYLYWYKQEPGAGLQLLTYIFSFMDMKQDQRLTVLLNKKDKHLSLRIADTQTGDSAIYFCAGSGGGTDKLIFGTGTRLQVFP Vbeta: GAVVSQHPSWVICKSGTSVKIECRSLDFQATTMFWYRQFPKQSLMLMATTDYGSKATYEQGVEKDKFLINHASLTLSTLTVTSAHPEDSSFYICSAREPGQGPWEQYFGPGTRLTVT", "Output unit": "nM", "EC50 of peptide": 26.2}
